- ASSAY_TARGET: GLP-1R (Homo sapiens, UniProt P43220)
- Sequence (P43220 24-463): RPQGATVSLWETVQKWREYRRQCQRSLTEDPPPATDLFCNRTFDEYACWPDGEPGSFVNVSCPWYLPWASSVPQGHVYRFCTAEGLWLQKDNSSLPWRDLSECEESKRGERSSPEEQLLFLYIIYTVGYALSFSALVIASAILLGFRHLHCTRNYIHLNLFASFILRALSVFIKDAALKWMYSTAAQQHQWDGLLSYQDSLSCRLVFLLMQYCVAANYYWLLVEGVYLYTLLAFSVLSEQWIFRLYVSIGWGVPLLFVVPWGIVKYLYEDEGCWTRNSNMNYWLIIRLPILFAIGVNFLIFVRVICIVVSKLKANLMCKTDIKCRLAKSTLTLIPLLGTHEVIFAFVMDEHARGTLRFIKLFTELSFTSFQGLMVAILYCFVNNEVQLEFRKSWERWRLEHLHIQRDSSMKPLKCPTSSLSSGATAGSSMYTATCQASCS
- PROCEDURE_DETAILS: GLP-1R agonist cAMP stimulation assay (HTRF cAMP)
- CONDITIONS: HEK293 cell line expressing GLP-1 target; HTRF cAMP agonist mode, 30 min at RT
Below, each of the compounds is paired with its reported EC50 value.
Dear colleague, please return just the value in nM, with no unit written.

- COMPOUND: "N#Cc1ccc(COc2cccc(C3CCN(Cc4nc5cc(C(=O)Nc6cc(F)c7c(c6)C6(CC6)C(=O)N7)ccc5n4C[C@@H]4CCO4)CC3)n2)c(F)c1"
  SCALE_UNIT: "nM"
  EC50: 0.55
- COMPOUND: "Cc1cc2c(C#N)ccc(COc3cccc(C4CCN(Cc5nc6cc(NC(=O)c7cc(F)c8[nH]nc(C)c8c7)ccc6n5C[C@@H]5CCO5)CC4)n3)c2o1"
  SCALE_UNIT: "nM"
  EC50: 0.65
- COMPOUND: "Cc1cc(C(=O)Nc2ccc3c(c2)nc(CN2CC=C(c4cccc(OCc5ccc(C#N)cc5F)n4)CC2)n3C[C@@H]2CCO2)cc2cn[nH]c12"
  SCALE_UNIT: "nM"
  EC50: 1.04
- COMPOUND: "O=C(Nc1cc(C(F)(F)F)c2[nH]ncc2c1)c1ccc2c(c1)nc(CN1CC=C(c3cccc(OCc4ccc(Cl)cc4F)n3)CC1)n2C[C@@H]1CCO1"
  SCALE_UNIT: "nM"
  EC50: 1.03

Data request: If you can, please state the reported EC50 value of `CCc1n[nH]c2ccc(NC(=O)c3ccc4c(c3)nc(CN3CCC(c5cccc(OCc6ccc(C#N)cc6F)n5)CC3)n4C[C@@H]3CCO3)cc12` .
Data returned: 1.25

Data request: If you can, please state the reported EC50 value of `O=C(Nc1ccc2[nH]c(=O)[nH]c2c1)c1ccc2c(c1)nc(CN1CC=C(c3cccc(OCc4ccc(Cl)cc4F)n3)CC1)n2C[C@@H]1CCO1` .
Data returned: 0.68
